The reported measurements were obtained from the supplement of paper PMC9170038.

- Test system: MS2 coat protein
- ASSAY TEXT: apparent KD of MS2 coat protein; designed switch direction (-1 OFF switch, 1 ON switch): 1; higher = weaker reporter binding
- CONDITION PARAMETERS: input ligand: FMN 200 uM
Each entry below lists one item and its recorded apparent KD of MS2 coat protein value.
Reply with the number and its unit after it.

Here is how some sequences turned out for apparent KD of MS2 coat protein.
CONSTRUCT SEQUENCE: GAGGGACAGACCAACAUGAGGAUCACCCAUGUCCUCGCAGGUCAGGAUAUUAUGAGGAUCACCCAUGAGAAGGGACGGUGAACC (Eterna round: R96, puzzle: Same State NG 3)
ASSAYED SYSTEM: MS2 coat protein
apparent KD of MS2 coat protein: 587 nM
//
CONSTRUCT SEQUENCE: ACUUAGUACAAUUUAGAUCUACAUGAGGAUCACCCAUGUACUGAGGAUAUCAGCUCGAUUAGAGCUGAGAAGGCAGAAGUACUU [SSNG3/8-A2] (Eterna round: R96, puzzle: Same State NG 3)
ASSAYED SYSTEM: MS2 coat protein
apparent KD of MS2 coat protein: 45.4 nM
//
CONSTRUCT SEQUENCE: AACAAAUACACAGGAUAUACAGUGGCAACCACUGUAGAAGGGUGGGCGGGUUCCAACAUGAGGAUCACCCAUGUACCCAAUAAC [Atbiladi] (Eterna round: R96, puzzle: Same State NG 1)
ASSAYED SYSTEM: MS2 coat protein
apparent KD of MS2 coat protein: 521 nM
//
CONSTRUCT SEQUENCE: ACGCAGCUAGGUGAGGAUAUCGGUGGUAAAACAUGAGGAUCACCCAUGUCCGAAGCUCGGACUUCCGAGAAGGCGCCCGGCUGCA [Velaberi] (Eterna round: R96, puzzle: Same State 2)
ASSAYED SYSTEM: MS2 coat protein
apparent KD of MS2 coat protein: 12.7 nM

Now look at this entry.
Q. Please report the recorded apparent KD of MS2 coat protein for GGUGGGUUACUACCAACACAUGAGGAUCACCCAUGUUUUGGGAAGGAUAUGGUACCUAUUUGGUACCAGAAGGUCCCGUUGGUG [salish99_SSNG3_r04_705] (Eterna round: R96, puzzle: Same State NG 3) .
A. 28.7 nM
